assayProcedure: Human HepG2 cell viability assay in 384 well format
Type: toxicity, cell-based
Parameters: dose 125 nL, time 70.5 hour; concentration not given beside the values
conditionParameters: HepG2 cells, read-out: Inhibition
measuredEndpoint: cytotoxicity at 70.5 h (%)
Numeric answer only, unit % assumed.

// worked examples, cytotoxicity at 70.5 h included
[
  {
    "compound": "CCn1nc(C)c2nc(C(C)C)nc(N3CCCC3)c21",
    "measuredEndpoint": "cytotoxicity at 70.5 h",
    "resultUnits": "%",
    "valueReported": 15.3
  },
  {
    "compound": "CC(C)c1nnc(NC(=O)NCc2ccc(CO)c(F)c2)s1",
    "measuredEndpoint": "cytotoxicity at 70.5 h",
    "resultUnits": "%",
    "valueReported": -13.4
  },
  {
    "compound": "COc1c(C)cnc(CN2CCC(N(C)C(C)C(N)=O)CC2)c1C (stereo not drawn)",
    "measuredEndpoint": "cytotoxicity at 70.5 h",
    "resultUnits": "%",
    "valueReported": -2.64
  },
  {
    "compound": "CCCn1ncnc1C(C)NC(=O)CC1CCN(C(C)C)CC1 (stereo not drawn)",
    "measuredEndpoint": "cytotoxicity at 70.5 h",
    "resultUnits": "%",
    "valueReported": -4.86
  },
  {
    "compound": "c1coc(CN2CCO[C@H]3[C@H](OCC4CCCC4)CC[C@@H]32)c1",
    "measuredEndpoint": "cytotoxicity at 70.5 h",
    "resultUnits": "%",
    "valueReported": 11.8
  }
]

compound `Cc1ccc(C(=O)N2CC(C)(C)[C@@](C)(O)C2)cc1N1CCNC1=O` , cytotoxicity at 70.5 h observed: 0.84

compound `Cc1cc(CNCc2c(C(C)C)nn(C)c2N2CCOCC2)no1` , cytotoxicity at 70.5 h observed: -6.34

compound OC(COCc1cccs1)CSc1nnc2ccccn12 (stereo not drawn) , cytotoxicity at 70.5 h observed: 22.9

compound `CCNC(=O)[C@@H]1C[C@H](N)CN1c1cc(C(F)(F)F)nc(N2CCCC2)n1` , cytotoxicity at 70.5 h observed: 3.41

compound `C1CC(CN2C[C@@H]3C[C@@H](c4nnc(C5CC5)o4)O[C@@H]3C2)C1` , cytotoxicity at 70.5 h observed: 27.7

* * *

Entries and their cytotoxicity at 70.5 h
assayProcedure: Human HepG2 cell viability assay in 384 well format
Assay type: toxicity, cell-based
Set-up: dose 125 nL, time 70.5 hour; concentration not given beside the values
conditionParameters: HepG2 cells, read-out: Inhibition
State the value with its unit after it.

[
  {
    "compound": "Cc1ncc2c(n1)CCCC2NC(=O)c1ccc(Cn2cccn2)cc1 (centres undefined)",
    "cytotoxicity at 70.5 h": "-5.6%"
  }
]

compound O=C(Cc1cccs1)NCC1(O)CCSC1 (centres undefined) , cytotoxicity at 70.5 h observed: -5.51%

compound Cc1cc(C)n(CC2CN(CC3CCCC3)CCO2)n1 (centres undefined) , cytotoxicity at 70.5 h observed: -3.55%

compound CN(CC1CCCO1)c1nc(-c2cccnc2)nc2c1CCNCC2 (centres undefined) , cytotoxicity at 70.5 h observed: -10.6%

compound `Cc1csc(C2(NC(=O)CCNC(=O)C(C)(C)C)CCCC2)n1` , cytotoxicity at 70.5 h observed: 0.031%
